Tested on: Huh-7 HCV replicon cells
assay_name: CC50 assay in the anti-HCV replicon assay (CellTiter-Glo)
Type: cell-based, human
measurement_setup: 3 days incubation, CellTiter-Glo luminescence
The following compounds are shown together with reported CC50 values.

Task: Look up CC50: CONC(=O)c1ccc(-c2ccc3nc(N)nc(OCC4CC4)c3c2)cc1
Result: 10 to 20 µM

Task: Look up CC50: CCOc1nc(NCc2ccc(S(N)(=O)=O)cc2)nc2ccc(-c3ccc(C(=O)NC4CC4)cc3)cc12
Result: < 10 µM

Task: Look up CC50: CCOc1nc(N)nc2ccc(-c3ccc(C(=O)N4CCCCC4)cc3)cc12
Result: > 20 µM

Task: Look up CC50: CN(C)CCCOc1nc(N)nc2ccc(-c3ccc(C(F)(F)F)cc3C(F)(F)F)cc12
Result: > 20 µM

Task: Look up CC50: CN(C)CCCOc1nc(N)nc2ccc(-c3ccc(F)c(Cl)c3)cc12
Result: > 20 µM

Task: Look up CC50: CCOc1ncnc2ccc(-c3cn[nH]c3)cc12
Result: > 20 µM

----------
assay_name: CC50 assay in the anti-HCV replicon assay (CellTiter-Glo)
Assay type: cell-based, human
measurement_setup: human, Huh-7 hepatoma cells harbouring an HCV replicon; Huh-7 HCV replicon cells, 3 days incubation, CellTiter-Glo luminescence
The following molecules are shown together with reported CC50 at 3 days values.

• CC(C)Oc1nc(N)nc2ccc(-c3cccc(F)c3F)cc12 = > 20 µM
• CC(C)NC(=O)c1ccc(-c2ccc3nc(N)nc(OCCF)c3c2)cc1 = > 20 µM
• CCOc1nc(N)nc2ccc(-c3ccc(C(=O)NCc4ccccc4)cc3)cc12 = > 20 µM
• CCOc1nc(NCc2ccc(S(N)(=O)=O)cc2)nc2ccc(-c3ccc(C(N)=O)cc3)cc12 = < 10 µM
• Cc1ccc(-c2ccc3nc(N)nc(OCC4CCC4)c3c2)cc1 = > 20 µM

Task: Look up CC50 at 3 days: Nc1nc(OCCF)c2cc(-c3ccc(C(=O)NCc4ccccc4)cc3)ccc2n1
Result: 10 to 20 µM

Task: Look up CC50 at 3 days: CCOc1nc(N)nc2ccc(-c3ccc(C(=O)NC4CC4)c(Cl)c3)cc12
Result: > 20 µM

Task: Look up CC50 at 3 days: COCCOc1nc(N)nc2ccc(-c3cn[nH]c3)cc12
Result: > 20 µM

Task: Look up CC50 at 3 days: CCOc1nc(N)nc2ccc(-c3ccc(C(=O)NC)cc3)cc12
Result: > 20 µM

----------
The following molecules are shown together with reported CC50 at 3 days values.
assay_name: CC50 assay in the anti-HCV replicon assay (CellTiter-Glo)
Assay type: cell-based, human
measurement_setup: human, Huh-7 hepatoma cells harbouring an HCV replicon; Huh-7 HCV replicon cells, 3 days incubation, CellTiter-Glo luminescence

Task: Look up CC50 at 3 days: Nc1nc(OCCN2CCOCC2)c2cc(-c3ccc(Cl)c(C(F)(F)F)c3)ccc2n1
Result: 10 to 20 µM

Task: Look up CC50 at 3 days: COCCOc1nc(N)nc2ccc(-c3ccc(NC(C)=O)cc3)cc12
Result: 10 to 20 µM

Task: Look up CC50 at 3 days: CC(C)Oc1nc(N)nc2ccc(-c3cccc(O)c3)cc12
Result: < 10 µM

Task: Look up CC50 at 3 days: Nc1nc(OCC2CCC2)c2cc(-c3ccoc3)ccc2n1
Result: 10 to 20 µM

Task: Look up CC50 at 3 days: CC(C)NC(=O)c1ccc(-c2ccc3nc(N)nc(OCCO)c3c2)cc1
Result: > 20 µM

Measured values drawn from patent US8673929B2 for this set.
